Values from the supplement of paper PMC11908140

B1: library; numbered along this chain (parent)
chain: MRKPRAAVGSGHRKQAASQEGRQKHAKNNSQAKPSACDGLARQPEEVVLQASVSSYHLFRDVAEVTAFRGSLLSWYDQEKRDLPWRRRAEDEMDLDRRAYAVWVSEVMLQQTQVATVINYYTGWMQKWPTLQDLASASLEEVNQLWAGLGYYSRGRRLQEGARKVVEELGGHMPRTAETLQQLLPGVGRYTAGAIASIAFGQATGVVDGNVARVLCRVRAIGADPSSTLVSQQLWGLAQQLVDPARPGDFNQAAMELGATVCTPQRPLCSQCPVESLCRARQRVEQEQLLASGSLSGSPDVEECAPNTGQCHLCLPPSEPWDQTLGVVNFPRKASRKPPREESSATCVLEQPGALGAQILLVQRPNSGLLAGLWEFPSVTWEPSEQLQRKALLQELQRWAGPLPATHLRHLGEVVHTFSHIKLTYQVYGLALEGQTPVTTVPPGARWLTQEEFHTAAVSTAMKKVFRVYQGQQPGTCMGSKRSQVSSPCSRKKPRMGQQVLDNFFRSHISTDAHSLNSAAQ

Variants of: B1
Experiment: 8OG:A repair function score (normalized; synonymous = 0, nonsense = -1) (normalized log-likelihood score); higher = more repair activity (WT-like);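 further: cells sorted at 72 h after reporter transfection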
Settings: with 8OG:A DNA repair reporter (GFP) in HEK-293 MUTYH KO cells
valueKind: 8OG:A repair function score

* R2A | -0.0711

Now for the variant whose 8OG:A repair function score we want.
Given the variant A400H , what is its reported 8OG:A repair function score? 0.179
